Exercise: state measured TGI for each of the molecules provided.
tested on: OVCAR-4 ovarian; assay: NCI tumour cell line growth inhibition, 48 h

Field TGI (entry COc1ccc2c3c1OC1C34CCN(C)C(C2)C4=CC(I)C1(OC)OC (stereo unspecified) ) reads 30 µM

Field TGI (entry N#Cc1ccc2cc3c(cc2c1)OCO3 ) reads > 100 µM

Field TGI (entry c1ccc(P(=C2c3ccccc3-c3ccccc32)(c2ccccc2)c2ccccc2)cc1 ) reads > 100 µM

Field TGI (entry COc1ccc(/C=C\c2cc(OC)c(OC)c(OC)c2)cc1OCC(=O)Nc1ccc2nc(C)sc2c1 ) reads 9.18 µM

Field TGI (entry O=S(=O)(O)Oc1cc2c(c(OS(=O)(=O)O)c1)C[C@H](OS(=O)(=O)O)[C@@H](c1ccc(OS(=O)(=O)O)c(OS(=O)(=O)O)c1)O2 ) reads > 100 µM

Field TGI (entry COc1ccc2c3c([nH]c2c1)CCN(Cc1ccccc1)C3 ) reads > 100 µM

Field TGI (entry Cc1ccc(-c2nc([P+](c3ccccc3)(c3ccccc3)c3ccccc3)c(Nc3ccccc3)o2)cc1 ) reads 1.26 µM

Field TGI (entry COc1ccc2nc3n(c2c1)C(=O)c1ccccc1-3 ) reads > 100 µM

Field TGI (entry Cc1cnc(Nc2ccc(N3CCN(C)CC3)cc2)nc1Nc1ccc(Cl)c(NS(=O)(=O)C(C)(C)C)c1 ) reads 23.7 µM

Field TGI (entry O=S(=O)(O)c1ccc2c(N=Nc3ccc(Cl)cc3)c(O)ccc2c1 ) reads > 100 µM

Field TGI (entry CC(C)(C)C1=CC(=C2C=Cc3ccccc3O2)C=C(C(C)(C)C)C1=O ) reads 16.8 µM

Field TGI (entry CCCN1C(=O)/C(=C\c2ccc(OC)c(OC)c2)SC1=Nc1ccccc1 ) reads > 100 µM

Field TGI (entry CCOC(=O)C(C)c1nc2ccc(C(F)(F)F)cc2[nH]c1=O (stereo unspecified) ) reads > 100 µM

Field TGI (entry COc1ccc(-n2c(=O)n(-c3ccccc3)c(=O)n2-c2ccc(OC)cc2)cc1 ) reads > 100 µM

Field TGI (entry Cc1cc(=O)[nH]c(CNC(=O)c2cccc(C(=O)NCc3cc(=O)[nH]c(C)n3)c2)n1 ) reads > 100 µM

Field TGI (entry CC1(C)CCCCCC(C)(CCCO)C1=O (stereo unspecified) ) reads > 100 µM

----------
tested on: SNB-75 CNS; assay: NCI tumour cell line growth inhibition, 48 h
readout.name: TGI

Field TGI (entry CCOC(=O)CN1CC(C2=C(O)CN(CC(=O)OCC)C2=O)=CC1=O ) reads > 100 µM

Field TGI (entry O=C(NCc1ccco1)c1cccc(NC2=C(Cl)C(=O)N(Cc3ccccc3)C2=O)c1 ) reads 87.2 µM

Field TGI (entry N#Cc1ccc2cc3c(cc2c1)OCO3 ) reads 74.3 µM

Field TGI (entry COc1ccc2c(c1)c(=O)c1c(NCCN(C)C)ccc3nnn2c31 ) reads 20.7 µM

Field TGI (entry CCOc1ccc(O)cc1[P+](c1ccccc1)(c1ccccc1)c1ccccc1 ) reads 25.6 µM

Field TGI (entry CC(C)(C)OC(=O)c1cccnc1/C=N/O ) reads > 100 µM

Field TGI (entry CN(C)c1ccc(C(c2ccc(Cl)cc2)c2ccc(N(C)C)cc2)cc1 ) reads > 100 µM

Field TGI (entry CSCCCNC(=O)c1csc(-c2csc(CCNC(=O)CNC(=O)CNC(=O)OC(C)(C)C)n2)n1 ) reads > 100 µM

Field TGI (entry Cc1cc(Cl)ccc1Nc1nc(C(F)(F)F)ccc1C(=O)N/N=C/c1ccccc1Cl ) reads > 29.3 µM

Field TGI (entry COc1ccc(C2C=C(c3ccc(Cl)cc3)N=C3SC=C(C)N32)c(Br)c1 (centres undefined) ) reads 16.7 µM

Field TGI (entry O=C1c2ccccc2C(=O)c2c(NCC3CO3)ccc(NCC3CO3)c21 (centres undefined) ) reads > 100 µM

Field TGI (entry NC(=O)c1c(NC=O)ncn1C1OCC(O)C(O)C1O (centres undefined) ) reads > 100 µM

Field TGI (entry Cc1cc(O)c(/C=N/C(=S)Nc2ccccc2)c(=O)o1 ) reads > 100 µM

Field TGI (entry O=C1CSC2=NC3=C(CSC/C3=C\c3ccccc3)C(c3ccccc3)N12 (centres undefined) ) reads > 100 µM
